Molecular target: Decaprenylphosphoryl-beta-D-ribose oxidase (Mycobacterium tuberculosis (strain ATCC 25618 / H37Rv)) (UniProt P9WJF1)
Sequence (whole entry): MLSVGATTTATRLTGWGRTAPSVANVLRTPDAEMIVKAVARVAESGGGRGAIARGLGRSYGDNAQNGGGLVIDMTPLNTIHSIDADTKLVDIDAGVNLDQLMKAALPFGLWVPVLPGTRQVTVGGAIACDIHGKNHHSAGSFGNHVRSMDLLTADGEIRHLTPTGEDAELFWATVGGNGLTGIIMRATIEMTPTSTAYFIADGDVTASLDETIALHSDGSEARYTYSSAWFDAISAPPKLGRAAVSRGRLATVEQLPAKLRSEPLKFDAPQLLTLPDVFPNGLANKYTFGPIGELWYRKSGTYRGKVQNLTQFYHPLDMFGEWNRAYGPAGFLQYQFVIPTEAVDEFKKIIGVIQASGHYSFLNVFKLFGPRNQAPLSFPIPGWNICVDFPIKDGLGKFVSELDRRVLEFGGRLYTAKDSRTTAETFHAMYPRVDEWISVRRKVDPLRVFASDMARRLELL
Assay: Inhibition of Mycobacterium tuberculosis H37Rv DprE1 assessed as increase in trehalose monomycolates at 100 x MIC incubated for 24 hrs using [14C]acetate by TLC based metabolic labelling assay relative to control
Active and inactive are the calls of the source. The rule behind the calls is not given here.
observed-property: Activity

Here is how some molecules turned out for Activity.
NC(=O)/C=C/c1cc(C(F)(F)F)cc2c(=O)nc(N3CCN(CC4CCCCC4)CC3)sc12: inactive
COC(=O)/C=C/c1cc(C(F)(F)F)cc2c(=O)nc(N3CCN(CC4CCCCC4)CC3)sc12: inactive
CNC(=O)/C=C/c1cc(C(F)(F)F)cc2c(=O)nc(N3CCN(CC4CCCCC4)CC3)sc12: inactive
COC(=O)C#Cc1cc(C(F)(F)F)cc2c(=O)nc(N3CCN(CC4CCCCC4)CC3)sc12: inactive
O=c1nc(N2CCN(CC3CCCCC3)CC2)sc2c([N+](=O)[O-])cc(C(F)(F)F)cc12: Active

C[C@H]1COC2(CCN(c3nc(=O)c4cc(C(F)(F)F)cc([N+](=O)[O-])c4s3)CC2)O1 has a reported Activity of Active

###

Biological target: Decaprenylphosphoryl-beta-D-ribose oxidase (Mycobacterium tuberculosis (strain ATCC 25618 / H37Rv))
Assay: Inhibition of Mycobacterium tuberculosis H37Rv DprE1 assessed as increase in trehalose dimycolates at 100 x MIC incubated for 24 hrs using [14C]acetate by TLC based metabolic labelling assay relative to control
Calls of active or inactive are those of the source. The rule behind the calls is not given here.
Give one outcome, nothing more. List: true (1) = active, false (0) = inactive

Reference set (4 entries):
C[C@H]1COC2(CCN(c3nc(=O)c4cc(C(F)(F)F)cc([N+](=O)[O-])c4s3)CC2)O1: true (1)
O=c1nc(N2CCN(CC3CCCCC3)CC2)sc2c([N+](=O)[O-])cc(C(F)(F)F)cc12: true (1)
NC(=O)/C=C/c1cc(C(F)(F)F)cc2c(=O)nc(N3CCN(CC4CCCCC4)CC3)sc12: false (0)
CNC(=O)/C=C/c1cc(C(F)(F)F)cc2c(=O)nc(N3CCN(CC4CCCCC4)CC3)sc12: false (0)

Dear all, I need the recorded test outcome for COC(=O)/C=C/c1cc(C(F)(F)F)cc2c(=O)nc(N3CCN(CC4CCCCC4)CC3)sc12 , thank you.
false (0)

Please indicate how the test categorized COC(=O)C#Cc1cc(C(F)(F)F)cc2c(=O)nc(N3CCN(CC4CCCCC4)CC3)sc12 .
false (0)

Value source: ChEMBL document CHEMBL4706562
